Measured melting point, listed per entry for reference.

Consider the reported melting point for these compounds:
COc1cc(C2Oc3cc(C4Oc5cc(O)cc(O)c5C(=O)C4O)ccc3OC2CO)ccc1O (stereo unspecified) :: 167 to 180 °C
COc1ccc(C2=NN(C3CCOCC3)C(=O)[C@H]3CC=CC[C@@H]23)cc1OC (relative stereo) :: 175 to 177 °C
CC(C)(C)c1cc(SC(=S)NN)cc(C(C)(C)C)c1O :: 146 °C
Cc1cc(-c2ccc(S(N)(=O)=O)cc2)n(-c2ccc(F)cc2F)c1 :: 140 to 141 °C
Cc1ccc2ccc(N3C(=O)c4ccccc4C3CC(=O)CCC(C)C)nc2n1 (stereo unspecified) :: 155 °C

// lookup melting point for C/C(=N\OCCOc1ccc(C(=O)O)c(O)c1)c1ccc(C(C)(C)C)cc1 157 to 159 °C

// lookup melting point for CCOc1cccc(SCC(=O)O)c1CC(=O)O 147 to 150 °C

// lookup melting point for CCOC(=O)c1cnc(N2CCC[C@H]2CO)nc1NCc1ccc(OC)c(Cl)c1 88 to 90 °C

====

Measured melting point, listed per entry for reference.

Consider the reported melting point for these molecules:
COc1ccc(N2CCN(c3c(C)c(C)c4c(c3C)C(CO)C(C)(C)O4)CC2)cc1 (centres undefined) :: 140 to 141 °C
COc1ccc(C(=O)Cc2c(Cl)cncc2Cl)c2c1OC(c1ccccc1)(c1ccccc1)O2 :: 156 to 157 °C
CC(CC(=O)O)C(=O)c1ccc2c(c1)OCC(=O)N2 (centres undefined) :: 170 to 172 °C
Cc1nc(N2CCN(c3ccc(F)cc3)CC2)c(C#N)nc1-c1ccccc1 :: 117 to 120 °C
CCOc1ccc(OCc2ccccc2OCc2nc(-c3ccccc3)oc2C)cc1CCC(=O)O :: 146 to 147 °C
COc1cc(CO)cc(OC)c1OCc1nc(-c2ccccc2)oc1C :: 113 to 114 °C
N#Cc1cc(-c2cccnc2)nn1-c1ccc(NC(=O)c2ccc(OCCCC3OCCO3)nc2)cc1 :: 197 to 198 °C
COc1ccc(C(=O)Nc2c(Cl)cncc2Cl)cc1OC1C=CCC1 (centres undefined) :: 177 to 178 °C
O=C(c1ccccc1)c1oc2ccccc2c1-c1ccc(-c2ccc(OC(Cc3ccccc3)C(=O)O)cc2)cc1 (centres undefined) :: 159 to 161 °C
C=C(C)C(=O)OCc1c(Br)c(Br)c(COC(=O)C(=C)C)c(Br)c1Br :: 148 to 149 °C

// lookup melting point for NCCNC(=S)Nc1c(Cl)cc([N+](=O)[O-])cc1Cl 205 °C

// lookup melting point for Cc1ccc(NC(=O)Nc2ccc(Oc3cc(Cl)ncn3)cc2)cc1C(F)(F)F 183 to 184 °C

// lookup melting point for CC(C)(C)OC(=O)N1CCC2(CC1)CC(c1ncccc1Cl)=NO2 97 to 102 °C

// lookup melting point for NC(=O)CN1CCN(c2ccc(NC(=O)c3ccccc3-c3ccc(C(F)(F)F)cc3)cc2)CC1 226 to 228 °C

// lookup melting point for O=C(NCc1ccc(Cl)cc1)c1cn2c(CCO)cc3cc(CN4CCOCC4)cc(c1=O)c32 169 to 172 °C

// lookup melting point for CCOC(=S)c1cc(C)c(Br)cc1N 48 to 50 °C

// lookup melting point for O=C(Nc1ccc(C#CC2(O)CN3CCC2CC3)cc1)C(F)(F)F (centres undefined) 222 to 223 °C

// lookup melting point for CCC(CC)c1ccc(Cl)c2nc3n(c12)CCCCN3c1cccc2c1OC(F)(F)O2 156 to 158 °C

// lookup melting point for COc1ccc(S(=O)(=O)C(C)(Cc2ccc(OCCN3CCCCCC3)cc2)C(=O)NO)cc1 (centres undefined) 68 °C

====

Measured melting point, listed per entry for reference.

Consider the reported melting point for these compounds:
CC(Oc1ncnc2ccccc12)c1ccc(C(C)(C)C)cc1 (stereo not given) :: 85 to 86 °C
CN1C(=O)CC(=O)N(c2ccccc2)c2ccccc21 :: 144 to 146 °C
COc1ccc(C(CN)C2CCCCC2O)cc1 (mixture of isomers) :: 79 to 81 °C
O=C(O)c1cccc2ncc(C3CCCCC3)cc12 :: > 280 °C
Cc1ccc(-c2nc3c(N[C@H]4[C@@H](C(N)=O)[C@@H]5C=C[C@H]4C5)c(Br)cnc3[nH]2)o1 :: 200 to 201 °C

// lookup melting point for COC(=O)c1ccc2cc(-c3ccc(C(=O)OC)c(C45CC6CC(CC(C6)C4)C5)c3)ccc2c1 181 to 182 °C

// lookup melting point for CCCCC(=O)Nc1ccc(Cl)c(-n2nc(CCCC)n(Cc3ccc(-c4ccccc4S(=O)(=O)NC(=O)OC(C)(C)C)cc3)c2=O)c1 177 to 179 °C

// lookup melting point for CC(=O)NC1CCNC(c2ncccc2Cl)C1 (stereo not given) 118 to 120 °C

// lookup melting point for COc1ccc2c(c1)C(=O)CCC21CCC(=O)N(C)C1=O (stereo not given) 116 to 118 °C

// lookup melting point for COc1ccc(CCN2CCC(Nc3nc4cncnc4n3Cc3ccccn3)CC2)cc1 144 °C

// lookup melting point for CCc1cc(NCc2nc3ccccc3s2)c(=O)[nH]c1C 209 to 210 °C

// lookup melting point for COc1ccc2[nH]c(=O)cc(C)c2c1 270 to 273 °C

// lookup melting point for OC(c1ccccc1)c1ccccc1Cl (stereo not given) 61 to 63 °C

====

value.type: melting point

CC(C)(C)OC(=O)Nc1ccc(C#Cc2ccc(F)cc2F)cc1[N+](=O)[O-] :: 134 to 136 °C
CCOC(=O)/C=C/c1ccc(OC(C)C)cc1Oc1ncc(C(F)(F)F)cc1Cl :: 84.5 to 85 °C
Cn1nnnc1SCCCCCCCCSc1nnnn1C :: 52 to 54 °C
NS(=O)(=O)c1cc2cc(OCC(=O)O)ccc2s1 :: 200 to 203 °C
CCOC(=O)c1cn2c(C)c(C)nc2c(NCc2c(C)cccc2CC)n1 :: 144 °C

// lookup melting point for COc1ccnc(CSc2nc3cc4c(cc3[nH]2)OC(F)(F)O4)c1 151 to 152 °C

// lookup melting point for COc1cc2c(cc1C(=O)Cc1ccc(C(=O)O)cc1)C(C)(C)CCC2(C)C 164 to 165 °C

// lookup melting point for COc1cc(OC)nc(NC(=O)NS(=O)(=O)Cc2ccccc2S(C)(=O)=O)n1 180 to 182 °C

// lookup melting point for CCC(O)c1ccc(-c2cccc(COc3ccc(CO)c(CO)c3)c2)c(C)c1 (stereo unspecified) 78 °C

// lookup melting point for COc1ccc(-c2ccc3ccc(N)nc3n2)cc1 220 °C

// lookup melting point for O=C(COc1ccc(Cl)c2c(=O)c3ccccc3sc12)c1ccccc1 174 to 176 °C

// lookup melting point for CCOCCCCCCCCCCC(=O)O 44 to 45.5 °C

// lookup melting point for Cc1c(NC(=O)c2ccc(-c3ccccc3)cc2F)ccc2cc(CN3CCCC3)cnc12 166 to 168 °C

// lookup melting point for CC(C)(C)OC(=O)c1nc(-c2ccccc2)[nH]c1C1CCCCC1 222 to 223 °C

// lookup melting point for SC12CC3CC(CC(C3)C1)C2 101 to 103 °C

// lookup melting point for CC(C)c1ccc(-n2c(CC(=O)O)c(C(=O)O)c3cc(Oc4cccc(C(F)(F)F)c4)ccc32)cc1 185 to 190 °C

// lookup melting point for NNC(=O)N(O)Cc1ccc(OCc2csc(-c3ccccc3)n2)cc1 144 to 145 °C

// lookup melting point for O=c1oc2c(c(O)c1C(c1ccccc1)C1CC1)CCCCC2Cc1ccccc1 (stereo unspecified) 178 to 182 °C

// lookup melting point for COc1ccc(Cl)cc1CCCC(=O)O 79 to 81 °C

// lookup melting point for COc1ccc(-c2nc(N3CCOCC3)sc2-c2ccc(OC)cc2)cc1 133 to 135 °C

// lookup melting point for COc1ccc(OCc2nc3nccnc3c(=O)[nH]2)cc1 233 to 234 °C

====

Measured melting point, listed per entry for reference.

CCOc1cc(C(C)(c2cc(OCC)c(O)c(OCC)c2)c2cc(OCC)c(O)c(OCC)c2)cc(OCC)c1O :: 78 °C
CN(c1cccc2cc(C3=NCC(CC(=O)N4CCC[C@H]4C(=O)O)S3)[nH]c12)S(=O)(=O)c1ccccc1C(F)(F)F (stereo partly drawn) :: 132 to 135 °C
COC(=O)C(=Cc1ccc(OC)c(OC)c1)NC(=O)c1ccccc1 :: 135 to 137 °C
Cc1cc(-n2ccnc2)c2cccc(OCc3c(Cl)ccc(S(=O)(=O)N4CSC[C@H]4C(=O)O)c3Cl)c2n1 :: 130 °C
Nc1cc(-n2cc(C(=O)O)c(=O)c3cc(F)c(NCCO)c(Cl)c32)c(F)cc1F :: 215 to 219 °C

// lookup melting point for Cc1cccc(NC(=O)NCC(=O)N(c2ccccc2)C(C(=O)OC(C)(C)C)c2ccccc2Cl)c1 (racemic) 181 °C

// lookup melting point for Cc1nc2c(OCc3c(Cl)ccc(N(C)C(=O)CN4C(=O)c5ccccc5C4=O)c3Cl)cccn2c1Br 229 to 230 °C

// lookup melting point for COc1cc(CCO[Si](C)(C)C(C)(C)C)c(C2=CC3CCC2N3C(=O)OC(C)(C)C)cn1 (stereo not drawn) 75 to 76 °C
